The entries below come with measured Population Fragmented Nuclei (%) values attached.
# Tested on: Fibroblast
# protocol notes: Multiplex assay against human fibroblast
# Type: toxicity, cell-based
# measurement context: 48 h, 10 µM, compound concentration 10 uM, replicate 2
result type: Population Fragmented Nuclei (%)

>>> value_observed("CCCCCC(O)/C=C/[C@H]1C(=O)CC(O)C1C/C=C\\CCCC(=O)O (stereo not given in full)")
"30%"
>>> value_observed("Cc1c(CC(=O)O)c2cccnc2n1Cc1ccc(S(C)(=O)=O)cc1C(F)(F)F")
"32%"
>>> value_observed("COc1cccc2c1c(NS(=O)(=O)c1ccc(Cl)s1)nn2Cc1cccc(CNC(=O)C(C)(C)O)c1")
"33%"
>>> value_observed("Cl.N=C(N)NC(=O)Cc1c(Cl)cccc1Cl [GUANFACINE HYDROCHLORIDE]")
"39%"
>>> value_observed("Br.CS(=O)(=O)Nc1c(O)ccc2c1CCCC2C1=NCCN1 (stereo not given)")
"48%"

* * *

# System: Fibroblast
# protocol notes: Multiplex assay against human fibroblast
# Assay type: toxicity, cell-based
# measurement context: 48 h, 1 µM, compound concentration 1 uM, replicate 2
Please note: Satisfied applies when Population Healthy Nuclei (%) is 50% or greater, and Not satisfied applies otherwise.

>>> answer_label("N#Cc1cc(F)cc(-c2nc(-c3ccc(F)cn3)no2)c1")
"Not satisfied"
>>> answer_label("CC(C)(C)c1cc(NC(=O)Nc2ccc(-c3cn4c(n3)sc3cc(OCCN5CCOCC5)ccc34)cc2)no1")
"Satisfied"
>>> answer_label("Cc1cccc(NC(=O)CN2CCC(c3ccccn3)CC2)c1.Cl.Cl")
"Satisfied"
>>> answer_label("CN[C@@H](C)C(=O)N[C@H](C(=O)N1CCC[C@H]1C(=O)Nc1snnc1-c1ccccc1)C1CCCCC1")
"Not satisfied"
>>> answer_label("CC(C)COc1ccc(CNC(=O)N(Cc2ccc(F)cc2)C2CCN(C)CC2)cc1")
"Not satisfied"
>>> answer_label("O=C(NCCN1CCC(n2c(=O)[nH]c3cc(Cl)ccc32)CC1)c1ccc(F)cc1 [HALOPEMIDE]")
"Not satisfied"
>>> answer_label("NCCc1cn(S(=O)(=O)c2c(Cl)nc3sccn23)c2ccccc12.O=C(O)C(=O)O")
"Not satisfied"
>>> answer_label("Br.CS(=O)(=O)Nc1c(O)ccc2c1CCCC2C1=NCCN1 (stereo not drawn)")
"Satisfied"
>>> answer_label("Cl.NCCc1ccc(O)c(O)c1 [DOPAMINE HYDROCHLORIDE]")
"Satisfied"
>>> answer_label("CCCCCC(O)/C=C/[C@H]1C(=O)CC(O)C1C/C=C\\CCCC(=O)O (stereo partly drawn)")
"Not satisfied"
>>> answer_label("N#Cc1c(Oc2cccc(OS(=O)(=O)CCCC(F)(F)F)c2)cccc1C(F)(F)F")
"Satisfied"
>>> answer_label("CC(C)c1noc(N2CCC(COc3ccc(-c4ccc(S(C)(=O)=O)cc4)nc3)CC2)n1")
"Not satisfied"
>>> answer_label("Cc1c(CC(=O)O)c2cccnc2n1Cc1ccc(S(C)(=O)=O)cc1C(F)(F)F")
"Not satisfied"
>>> answer_label("COc1cccc2c1c(NS(=O)(=O)c1ccc(Cl)s1)nn2Cc1cccc(CNC(=O)C(C)(C)O)c1")
"Satisfied"
>>> answer_label("CC[C@@H](C)Nc1nc(C)nc2c(-c3ccc(OC)nc3C)c(C)nn12")
"Not satisfied"
>>> answer_label("CCCOc1ccc2[nH]cc(C3=CCNCC3)c2n1.Cl")
"Satisfied"
>>> answer_label("Cl.N=C(N)NC(=O)Cc1c(Cl)cccc1Cl [GUANFACINE HYDROCHLORIDE]")
"Not satisfied"
>>> answer_label("O=C(CCCc1ccccc1)Nc1nc2ccccc2c(=O)s1")
"Satisfied"
>>> answer_label("COc1ccccc1N1CCN(C[C@@H](C(=O)NC(C)(C)C)c2ccccc2)CC1.Cl.Cl")
"Satisfied"
>>> answer_label("CN(C)C(=O)Cn1cc(-c2ccc(-c3cncc4ccccc34)cc2)cn1")
"Not satisfied"
>>> answer_label("CCCCC1=NC2(CCCC2)C(=O)N1Cc1ccc(-c2ccccc2-c2nnn[nH]2)cc1")
"Satisfied"
>>> answer_label("Cc1sc2c(c1C)C(c1ccc(Cl)cc1)=N[C@@H](CC(=O)NCCCCCCCCNC(=O)COc1cccc3c1C(=O)N(C1CCC(=O)NC1=O)C3=O)c1nnc(C)n1-2 (stereo partly drawn)")
"Not satisfied"
>>> answer_label("Cc1onc(-c2ccccc2Cl)c1C(=O)N(C)c1ccc(Cl)cc1")
"Satisfied"
>>> answer_label("O=C1[C@H](Cc2ccc(O)cc2)N2C(=O)CCN(C(=O)NCc3ccccc3)[C@H]2CN1Cc1cccc2ccccc12")
"Not satisfied"
>>> answer_label("CC(/C=C1\\SC(=S)N(CCCC(=O)Nc2ccc(C(=O)O)c(O)c2)C1=O)=C\\c1ccccc1")
"Satisfied"
>>> answer_label("Cc1noc(-c2ccc(-c3ccc(CC(=O)O)cc3)cc2)c1NC(=O)O[C@H](C)c1ccccc1Cl")
"Satisfied"
>>> answer_label("CC(=O)Nc1cccc2c1c(Sc1ccc(Cl)cc1)c(C)n2CC(=O)O")
"Satisfied"
>>> answer_label("Cc1cnc(-c2cc(N3CCN(C(=O)CCS(C)(=O)=O)CC3)ncc2Cl)c(C)c1")
"Not satisfied"
